system: OVCAR-4 ovarian; assay: NCI tumour cell line growth inhibition, 48 h
quantity.kind: TGI (µM)
One number for each entry, in µM.

COC(=O)c1c2c(c3[nH]c4ccccc4c3c1C(=O)OC)C(=O)C1=C(C2=O)C2(Cl)C(Cl)C(Cl)C1(Cl)C2(Cl)Cl (stereo not given)    6.31
CC(C)(C)C(=O)CC1(O)C=C(O)C(O)(CC(=O)C(C)(C)C)O1 (stereo not given)    64.1

// next item, TGI requested
(Q) Note down TGI recorded for COc1ccc(-c2c(C#N)c(N)nc3c2COc2ccc(F)cc2-3)cc1OC
(A) 63.7

---

Can you tell me TGI for the items I'm about to list?
tested on: HCT-15 colon; experiment: NCI tumour cell line growth inhibition, 48 h
Answers are plain numbers, in µM.

COc1cc(NC(=O)c2ccc(C(F)(F)F)nc2Nc2ccc(Cl)cc2C)cc(OC)c1OC    21.2
CSc1nc(=Nc2ccccc2)sn1-c1ccccc1    30.4
O=c1oc2ccc(Cl)cc2cc1C1=CSC2=NCCN12    41.6
COc1cc(NC(=O)c2ccc(C(F)(F)F)nc2Nc2cc(Cl)ccc2C)cc(OC)c1OC    19

(Q) Give TGI only, for CCNC(=S)NNC(=O)c1csc(NC(=S)NC2CCCCC2)n1 , using HCT-15 colon data.
(A) 37.2

These measurements were taken from PubChem BioAssay (NCI).
